This collection of values is drawn from paper PMC9328652.

- measurement description: Pharmacokinetic studies in CD-1 mice
- test settings: Swiss albino CD-1, mouse, whole blood, iv, 12.5 mg/kg
Property: clearance; scope: individual molecules
measured quantity: clearance (mL/min/kg)

{"molecule": "CC[C@H]1OC(=O)[C@H](C)[C@@H](O[C@H]2C[C@@](C)(OC)[C@@H](O)[C@H](C)O2)[C@H](C)[C@@H](O[C@@H]2O[C@H](C)C[C@H](N(C)C)[C@H]2O)[C@](C)(O)C[C@@H](C)CN(C)[C@H](C)[C@@H](O)[C@]1(C)O [Azithromycin, reference compound]", "measured quantity": "clearance", "units": "mL/min/kg", "observed measurement": 40.2}
{"molecule": "CC[C@H]1OC(=O)[C@H](C)[C@@H](O[C@H]2C[C@@](C)(OC)[C@@H](O)[C@H](C)O2)[C@H](C)[C@@H](O[C@@H]2O[C@H](C)C[C@H](N(C)C(C)=O)[C@H]2O)[C@](C)(O)C[C@@H](C)CN(CCCNC(=O)Nc2ccc3ccccc3c2)[C@H](C)[C@@H](O)[C@]1(C)O [Compound 4]", "measured quantity": "clearance", "units": "mL/min/kg", "observed measurement": 14.8}
{"molecule": "CC[C@H]1OC(=O)[C@H](C)[C@@H](O[C@H]2C[C@@](C)(OC)[C@@H](O)[C@H](C)O2)[C@H](C)[C@@H](O[C@@H]2O[C@H](C)C[C@H](N(C)C)[C@H]2O)[C@](C)(O)C[C@@H](C)CN(CCCNc2ccnc3cc(Cl)ccc23)[C@H](C)[C@@H](O)[C@]1(C)O [Compound 1]", "measured quantity": "clearance", "units": "mL/min/kg", "observed measurement": 1.95}
{"molecule": "CC[C@H]1OC(=O)[C@H](C)[C@@H](O)[C@H](C)[C@@H](O[C@@H]2O[C@H](C)C[C@H](N(C)C)[C@H]2OCCCNc2ccnc3ccccc23)[C@](C)(O)C[C@@H](C)CN[C@H](C)[C@@H](O)[C@]1(C)O [Compound 3]", "measured quantity": "clearance", "units": "mL/min/kg", "observed measurement": 10.1}
